Catalogue of self-splicing fitness (ln) readings, one per entry.
# test summary: self-splicing fitness, log relative to wild type (ln ratio); higher = more splicing; Tetrahymena group I intron in knt gene, E. coli kanamycin selection, DiMSum; sequences stand for … in CUCUCU…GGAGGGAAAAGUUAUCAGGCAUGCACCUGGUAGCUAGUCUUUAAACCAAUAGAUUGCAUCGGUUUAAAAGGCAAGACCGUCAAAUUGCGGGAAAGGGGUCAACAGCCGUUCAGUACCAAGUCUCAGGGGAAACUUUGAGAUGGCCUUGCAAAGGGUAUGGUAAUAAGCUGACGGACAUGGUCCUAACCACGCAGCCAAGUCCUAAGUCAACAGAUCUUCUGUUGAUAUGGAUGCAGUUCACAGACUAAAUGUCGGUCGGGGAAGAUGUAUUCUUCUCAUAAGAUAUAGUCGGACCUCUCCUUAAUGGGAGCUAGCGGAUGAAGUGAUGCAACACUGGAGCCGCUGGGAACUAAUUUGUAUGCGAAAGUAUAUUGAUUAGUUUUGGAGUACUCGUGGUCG;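 further: selection with 25 µg/mL kanamycin versus none on LB agar overnight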
# conditions used: 30 °C
assay endpoint: self-splicing fitness (ln)

chain=GAUCAGCAAUAUUACGUUCA readout_number=-0.939
chain=AACCAGCAAUAUUACGAAAC readout_number=-2.26
chain=CUCUAGCAAUAUUACGUAGG readout_number=-2.83
chain=AGACAGCAAUAUUACGAACA readout_number=-1.33
chain=CCUGAGCAAUAUUACGAUCA readout_number=-3.05
chain=UAAAAGCAAUAUUACGGAAG readout_number=-2.03
chain=CGCGAGCAAUAUUACGUAGG readout_number=-2.88
chain=UAACAGCAAUAUUACGAUUG readout_number=-1.57
chain=CACCAGCAAUAUUACGCUAA readout_number=-2.78
chain=AAUCAGCAAUAUUACGCAAC readout_number=-1.32
chain=UUCGAGCAAUAUUACGUUAG readout_number=-4.22
chain=AAUAAGCAAUAUUACGCAUC readout_number=-2.56
chain=AGCGAGCAAUAUUACGGGUA readout_number=-2.6
chain=CAUAAGCAAUAUUACGGCUG readout_number=-0.37
chain=AGGCAGCAAUAUUACGGAGG readout_number=-4.29

###

# test summary: self-splicing fitness, log relative to wild type (ln ratio); higher = more splicing; Tetrahymena group I intron in knt gene, E. coli kanamycin selection, DiMSum; sequences stand for … in CUCUCU…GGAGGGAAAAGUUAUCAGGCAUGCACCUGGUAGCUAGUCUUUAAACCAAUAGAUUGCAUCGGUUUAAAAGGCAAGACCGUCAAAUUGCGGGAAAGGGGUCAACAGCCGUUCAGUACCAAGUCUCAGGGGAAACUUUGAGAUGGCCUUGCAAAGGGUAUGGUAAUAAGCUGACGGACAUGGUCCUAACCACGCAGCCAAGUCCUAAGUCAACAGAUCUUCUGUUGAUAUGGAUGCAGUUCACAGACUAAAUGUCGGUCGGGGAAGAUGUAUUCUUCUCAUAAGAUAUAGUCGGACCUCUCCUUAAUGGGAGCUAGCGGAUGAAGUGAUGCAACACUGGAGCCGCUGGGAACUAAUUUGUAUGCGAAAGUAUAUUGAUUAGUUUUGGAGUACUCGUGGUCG
# conditions used: 37 °C
assay endpoint: self-splicing fitness (ln)

chain=GACCAGCAAUAUUACGGUUU readout_number=-0.744
chain=UGUGAGCAAUAUUACGUGUC readout_number=-1.75
chain=GAGAAGCAAUAUUACGCCAA readout_number=-2.17
chain=AGGGAGCAAUAUUACGAGCG readout_number=-0.874
chain=CCAUAGCAAUAUUACGUGUU readout_number=-3.36
chain=UAAGAGCAAUAUUACGGUGG readout_number=-2.36
chain=AACGAGCAAUAUUACGGAUU readout_number=-1.4
chain=CGUCAGCAAUAUUACGCAAU readout_number=-2.12
chain=GUGUAGCAAUAUUACGCAUA readout_number=-1.31
chain=UGAGAGCAAUAUUACGGGUG readout_number=-2.11
chain=AACUAGCAAUAUUACGUCCU readout_number=1.04
chain=ACUAAGCAAUAUUACGUGCU readout_number=-1.06
chain=GCAUAGCAAUAUUACGGGUC readout_number=-2.71
chain=GACCAGCAAUAUUACGCCAU readout_number=-2.09

###

# test summary: self-splicing fitness, log relative to wild type (ln ratio); higher = more splicing; Tetrahymena group I intron in knt gene, E. coli kanamycin selection, DiMSum; sequences stand for … in CUCUCU…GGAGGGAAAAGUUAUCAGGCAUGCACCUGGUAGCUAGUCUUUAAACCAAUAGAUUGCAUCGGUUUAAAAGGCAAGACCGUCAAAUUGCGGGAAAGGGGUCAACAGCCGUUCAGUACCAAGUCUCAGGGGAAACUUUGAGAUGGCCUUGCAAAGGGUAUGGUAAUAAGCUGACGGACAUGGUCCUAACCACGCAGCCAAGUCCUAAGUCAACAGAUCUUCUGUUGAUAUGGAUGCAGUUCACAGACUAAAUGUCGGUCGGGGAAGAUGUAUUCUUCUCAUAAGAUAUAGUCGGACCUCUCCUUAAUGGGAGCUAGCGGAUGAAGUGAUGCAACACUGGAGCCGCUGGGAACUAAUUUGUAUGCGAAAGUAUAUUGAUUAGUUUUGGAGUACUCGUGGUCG
# conditions used: 37 °C
assay endpoint: self-splicing fitness (ln)

chain=AUUUAGCAAUAUUACGAAGU assay_endpoint="self-splicing fitness (ln)" readout_number=-1.24
chain=GGCUAGCAAUAUUACGUCCC assay_endpoint="self-splicing fitness (ln)" readout_number=-0.484
chain=UAUCAGCAAUAUUACGUUGA assay_endpoint="self-splicing fitness (ln)" readout_number=-1.95
chain=UCUCAGCAAUAUUACGGGAU assay_endpoint="self-splicing fitness (ln)" readout_number=-2.87
chain=GAGAAGCAAUAUUACGUUCU assay_endpoint="self-splicing fitness (ln)" readout_number=-2.01
chain=GGACAGCAAUAUUACGCGGA assay_endpoint="self-splicing fitness (ln)" readout_number=0.416
chain=GGGCAGCAAUAUUACGGCAU assay_endpoint="self-splicing fitness (ln)" readout_number=-0.928

###

# test summary: self-splicing fitness, log relative to wild type (ln ratio); higher = more splicing; Tetrahymena group I intron in knt gene, E. coli kanamycin selection, DiMSum; sequences stand for … in CUCUCU…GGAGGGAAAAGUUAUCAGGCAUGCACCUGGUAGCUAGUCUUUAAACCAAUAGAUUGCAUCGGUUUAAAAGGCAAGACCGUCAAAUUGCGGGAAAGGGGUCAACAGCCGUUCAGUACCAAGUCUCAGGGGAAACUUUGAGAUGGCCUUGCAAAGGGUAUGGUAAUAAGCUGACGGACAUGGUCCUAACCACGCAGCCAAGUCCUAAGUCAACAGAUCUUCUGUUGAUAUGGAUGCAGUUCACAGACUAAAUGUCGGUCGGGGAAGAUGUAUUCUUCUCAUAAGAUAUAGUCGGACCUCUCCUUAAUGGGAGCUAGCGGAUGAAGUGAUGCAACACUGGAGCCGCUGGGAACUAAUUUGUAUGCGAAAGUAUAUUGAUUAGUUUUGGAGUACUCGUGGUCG
# conditions used: 30 °C
Catalogue of self-splicing fitness (ln) readings, one per entry.
assay endpoint: self-splicing fitness (ln)

chain=UAGCAGCAAUAUUACGCACU readout_number=-0.419
chain=UUCGAGCAAUAUUACGGGAG readout_number=-3.53
chain=CGAUAGCAAUAUUACGUCAA readout_number=-3.18
chain=UUCCAGCAAUAUUACGAAUG readout_number=-3.59
chain=GGGUAGCAAUAUUACGAACC readout_number=-2.05
chain=CCUAAGCAAUAUUACGUCCG readout_number=-1.34
chain=CCGGAGCAAUAUUACGCUUG readout_number=-2.67
chain=GGCGAGCAAUAUUACGUAAG readout_number=-3.88
chain=CGGAAGCAAUAUUACGCGGG readout_number=-1.64
chain=CGUGAGCAAUAUUACGACGU readout_number=-2.12
chain=GGUGAGCAAUAUUACGCAUA readout_number=-0.925
chain=GUAGAGCAAUAUUACGCGUA readout_number=-1.64
chain=CCCUAGCAAUAUUACGGUCU readout_number=-3.61
chain=UGACAGCAAUAUUACGAGCG readout_number=-0.264
chain=CCGCAGCAAUAUUACGGCCU readout_number=-3.67
chain=CCGUAGCAAUAUUACGGCGG readout_number=-4.06
chain=AAACAGCAAUAUUACGUUAA readout_number=-2.66
chain=AAACAGCAAUAUUACGCGAA readout_number=-1.95
chain=ACUAAGCAAUAUUACGUGAC readout_number=-3.82
chain=CGUUAGCAAUAUUACGCAGC readout_number=-2.48
chain=GCCUAGCAAUAUUACGUUAU readout_number=-1.52
chain=AGACAGCAAUAUUACGUUAU readout_number=-2.29
chain=GCGUAGCAAUAUUACGAGCA readout_number=-1.28
chain=ACGUAGCAAUAUUACGAACA readout_number=-1.56
chain=UUCGAGCAAUAUUACGACCA readout_number=-2.28
chain=GUUUAGCAAUAUUACGUGGG readout_number=-3.78
chain=GACUAGCAAUAUUACGUUUC readout_number=-2.3
chain=GUGGAGCAAUAUUACGGCGG readout_number=-3.32
chain=CUUAAGCAAUAUUACGUAGA readout_number=-3.6
chain=GUGUAGCAAUAUUACGUAGU readout_number=-2.99
chain=GAAUAGCAAUAUUACGCUGA readout_number=-2.56
chain=AAUCAGCAAUAUUACGCUGA readout_number=-2.61
chain=AAGCAGCAAUAUUACGCGGU readout_number=-3.08
chain=AUCCAGCAAUAUUACGGAAA readout_number=-1.07
chain=GCAGAGCAAUAUUACGGCAG readout_number=-2.87
chain=UGUGAGCAAUAUUACGAACC readout_number=-2.06
chain=UGUCAGCAAUAUUACGGGAA readout_number=-1.71
chain=CAGAAGCAAUAUUACGAAGU readout_number=-3.9
chain=AUUAAGCAAUAUUACGAUCA readout_number=-1.58
chain=GCAUAGCAAUAUUACGACCA readout_number=-0.207
chain=UAACAGCAAUAUUACGGCGC readout_number=-2.5
chain=AUUUAGCAAUAUUACGCUUU readout_number=-2.7
chain=UCCUAGCAAUAUUACGAGGU readout_number=-3.53
chain=ACGGAGCAAUAUUACGAUGG readout_number=-3.63
chain=GGCCAGCAAUAUUACGGAGU readout_number=-0.585
chain=UCCCAGCAAUAUUACGACUU readout_number=-3.04
chain=GCUGAGCAAUAUUACGGACG readout_number=-0.688
chain=CUAAAGCAAUAUUACGGCGC readout_number=-2.54
chain=UAGAAGCAAUAUUACGUCUC readout_number=-1.21
chain=GCUUAGCAAUAUUACGCUGU readout_number=-2.25
chain=AAGGAGCAAUAUUACGGUUC readout_number=-1.51
chain=GCCCAGCAAUAUUACGUGGC readout_number=-3.51
chain=AGGGAGCAAUAUUACGGCGG readout_number=-2.87
chain=UAUGAGCAAUAUUACGAUUG readout_number=-1.94
chain=UACAAGCAAUAUUACGCACG readout_number=-1.29
chain=GCUAAGCAAUAUUACGACUC readout_number=0.21
chain=AAUGAGCAAUAUUACGUGGG readout_number=-4.39
chain=UAUCAGCAAUAUUACGCAUC readout_number=-1.87
chain=AUUCAGCAAUAUUACGGUCG readout_number=-0.857
chain=AGAAAGCAAUAUUACGAUAG readout_number=-3.4
chain=AAGUAGCAAUAUUACGUCUC readout_number=-1.59
chain=GUUCAGCAAUAUUACGAGCC readout_number=-3.38
